Value source: paper PMC2843921

biological target: UniProt:P35372; assay: Stimulation of [35S]GTPγS binding, μ
Sequence (P35372 whole entry): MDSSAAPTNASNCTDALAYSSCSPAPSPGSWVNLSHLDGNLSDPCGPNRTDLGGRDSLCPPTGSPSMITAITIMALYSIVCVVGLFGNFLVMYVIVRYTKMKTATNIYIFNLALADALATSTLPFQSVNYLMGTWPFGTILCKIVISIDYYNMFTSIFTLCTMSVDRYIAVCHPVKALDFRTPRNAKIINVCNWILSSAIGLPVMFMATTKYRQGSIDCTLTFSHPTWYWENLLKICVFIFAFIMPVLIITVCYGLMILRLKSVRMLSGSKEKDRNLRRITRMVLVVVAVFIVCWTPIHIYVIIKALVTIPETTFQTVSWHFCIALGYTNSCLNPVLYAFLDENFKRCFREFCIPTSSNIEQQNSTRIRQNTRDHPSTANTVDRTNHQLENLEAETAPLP
Counter-ions that a name gives are not always drawn. Non-standard residues stand in square brackets, D forms with d. Residues, ends and D or L forms follow the SMILES beside them. *: point of attachment. Dmt = Cc1cc(O)cc(C)c1C[C@H](N)C(=O)O; dTic = O=C(O)[C@H]1Cc2ccccc2CN1; NHBn = c1ccc(CN*)cc1
ASSAY_READOUT: EC50

* Cc1cc(O)cc(C)c1C[C@H](N)C(=O)N1Cc2ccccc2C[C@@H]1C(=O)NCC(=O)NCc1ccccc1 [Compound 2, TFA·H-Dmt-D-Tic-Gly-NH-Bzl] (H-[Dmt]-[dTic]-Gly-NHBn) | 0.9 nM
* Cc1cc(O)cc(C)c1C[C@H](N)C(=O)N1Cc2ccccc2C[C@H]1C(=O)NCC(=O)NCc1ccc(Cl)cc1 [Compound 3, TFA·H-Dmt-Tic-Gly-NH-Bzl(pCl)] | 33 nM
* Cc1cc(O)cc(C)c1C[C@H](N)C(=O)N1Cc2ccccc2C[C@H]1C(=O)NCC(=O)NCc1ccc([N+](=O)[O-])cc1 [Compound 5, TFA·H-Dmt-Tic-Gly-NH-Bzl(pNO2)] | 61 nM
* Cc1cc(O)cc(C)c1C[C@H](N)C(=O)N1Cc2ccccc2C[C@H]1C(=O)NCC(=O)NC(c1ccccc1)c1ccccc1 [Compound 7, TFA·H-Dmt-Tic-Gly-NH-Benzhydryl] | 4.8 nM
* Cc1ccc(CNC(=O)CNC(=O)[C@@H]2Cc3ccccc3CN2C(=O)[C@@H](N)Cc2c(C)cc(O)cc2C)cc1 [Compound 4, TFA·H-Dmt-Tic-Gly-NH-Bzl(pMe)] | 63 nM
